These data points were gathered from patent US6340694B1.

# Subject of test: COX-2 (Mus musculus, UniProt Q05769)
# Construct: endogenous in cells; host or cells: peritoneal macrophages of C57BL/6 mouse, aspirin-pretreated, LPS-induced
# Experimental details: Evaluation of COX-2's inhibition efficacy (PGE2 radioimmuno assay, LPS-induced, aspirin-pretreated peritoneal macrophages)
# Format: cell-based, C57BL/6 mouse
# Experimental conditions: 0.1 μg/ml
Recorded metric: inhibition at 0.1 µg/mL (%)

Notebook entry, COX-2 (Mus musculus, UniProt Q05769) assay: inhibition at 0.1 µg/mL of `NS(=O)(=O)c1ccc(-c2oc3ccccc3c(=O)c2-c2ccc(Cl)c(Cl)c2)cc1` = ?
48

And then `Cc1cccc(-c2c(-c3ccc(S(C)(=O)=O)cc3)oc3ccccc3c2=O)c1` , what is it?
14

And then `Cc1cccc(-c2c(-c3ccc(S(C)(=O)=O)cc3)oc3ccccc3c2=S)c1` , what is it?
11

And then `NS(=O)(=O)c1ccc(-c2oc3cc(F)ccc3c(=O)c2-c2ccc(Cl)c(Cl)c2)cc1` , what is it?
89

And then `NS(=O)(=O)c1ccc(-c2oc3ccccc3c(=S)c2-c2ccc(F)cc2)cc1` , what is it?
42

P = Cc1ccc(-c2c(-c3ccc(S(N)(=O)=O)cc3)oc3ccc(F)cc3c2=O)cc1
Q = CS(=O)(=O)c1ccc(-c2oc3ccccc3c(=S)c2-c2cccc(Cl)c2Cl)cc1
Could you point out whether the larger inhibition at 0.1 µg/mL belongs to P or to Q ? // return label of chosen record
P
(P: 32%, Q: 18%)

1 = NS(=O)(=O)c1ccc(-c2oc3cc(F)ccc3c(=O)c2-c2ccccc2F)cc1
2 = NS(=O)(=O)c1ccc(-c2oc3ccc(F)cc3c(=S)c2-c2ccc(F)cc2)cc1
// pick min by inhibition at 0.1 µg/mL: 1 , 2 // return label of chosen record
1

A = CS(=O)(=O)c1ccc(-c2oc3ccccc3c(=O)c2-c2cccc(Cl)c2Cl)cc1
B = NS(=O)(=O)c1ccc(-c2oc3ccc(F)cc3c(=O)c2-c2ccc(Cl)cc2)cc1
C = NS(=O)(=O)c1ccc(-c2oc3ccc(F)cc3c(=O)c2-c2cccc(F)c2)cc1
D = CS(=O)(=O)c1ccc(-c2oc3ccccc3c(=O)c2-c2ccc(F)cc2)cc1
E = NS(=O)(=O)c1ccc(-c2oc3cc(F)ccc3c(=O)c2-c2ccc(F)cc2)cc1
Hey, quick one: sort these by inhibition at 0.1 µg/mL, low to high? Your task in answering is to list the labels in the requested order.
B, A, E, C, D

I = Cc1ccccc1-c1c(-c2ccc(S(C)(=O)=O)cc2)oc2ccccc2c1=O
II = CS(=O)(=O)c1ccc(-c2oc3ccccc3c(=S)c2-c2ccc(F)cc2)cc1
// pick min by inhibition at 0.1 µg/mL: I , II // return label of chosen record
I

----------
# Subject of test: COX-2 (Mus musculus, UniProt Q05769)
# Construct: endogenous in cells; host or cells: peritoneal macrophages of C57BL/6 mouse, aspirin-pretreated, LPS-induced
# Sequence (Q05769 18-604): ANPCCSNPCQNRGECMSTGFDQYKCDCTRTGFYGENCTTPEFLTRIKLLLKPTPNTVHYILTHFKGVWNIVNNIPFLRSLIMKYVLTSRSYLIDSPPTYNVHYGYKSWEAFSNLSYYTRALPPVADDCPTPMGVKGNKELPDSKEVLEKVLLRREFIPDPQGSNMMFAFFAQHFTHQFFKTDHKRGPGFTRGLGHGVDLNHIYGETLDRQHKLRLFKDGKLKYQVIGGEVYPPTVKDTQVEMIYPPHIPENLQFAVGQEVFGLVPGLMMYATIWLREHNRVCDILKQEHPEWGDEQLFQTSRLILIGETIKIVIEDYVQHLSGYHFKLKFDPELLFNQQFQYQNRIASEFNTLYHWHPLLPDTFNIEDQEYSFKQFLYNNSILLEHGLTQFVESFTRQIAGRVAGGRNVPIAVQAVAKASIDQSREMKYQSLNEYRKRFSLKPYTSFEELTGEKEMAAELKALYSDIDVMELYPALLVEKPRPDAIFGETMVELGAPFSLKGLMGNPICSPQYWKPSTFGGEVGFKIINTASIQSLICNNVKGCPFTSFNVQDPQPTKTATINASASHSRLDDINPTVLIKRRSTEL
# Experimental details: Evaluation of COX-2's inhibition efficacy (PGE2 radioimmuno assay, LPS-induced, aspirin-pretreated peritoneal macrophages)
# Type: cell-based, C57BL/6 mouse
# Experimental conditions: 10 μg/ml
Recorded metric: inhibition at 10 µg/mL (%)

Could you tell me which inhibition at 10 µg/mL is on file for `CS(=O)(=O)c1ccc(-c2oc3ccccc3c(=O)c2-c2cccnc2)cc1` ?
90

a = NS(=O)(=O)c1ccc(-c2oc3ccccc3c(=O)c2-c2ccc(F)cc2)cc1
b = CS(=O)(=O)c1ccc(-c2oc3ccccc3c(=S)c2-c2cccc(Cl)c2)cc1
// pick min by inhibition at 10 µg/mL: a , b // return label of chosen record
b
